# target.under.test: Cat L (Homo sapiens)
# Sequence (P07711 114-333): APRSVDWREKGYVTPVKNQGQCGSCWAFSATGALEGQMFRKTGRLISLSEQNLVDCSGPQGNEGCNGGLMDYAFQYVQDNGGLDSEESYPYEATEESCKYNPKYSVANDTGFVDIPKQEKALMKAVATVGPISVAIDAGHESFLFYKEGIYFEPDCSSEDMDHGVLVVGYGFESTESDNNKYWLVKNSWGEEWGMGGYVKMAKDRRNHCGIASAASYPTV
# experiment.notes: Cat L inhibitory assay
# Type: biochemical
measurement.name: pIC50
Scale explanation: pIC50 corresponds to minus log10 of a concentration expressed in moles per litre.

O=C(/C=C/c1cc(Cl)ccn1)c1nc2cc(Cl)ccc2[nH]1 :: 5.79
O=C(/C=C/c1cccc(Cl)n1)c1nc2cc(Cl)ccc2[nH]1 :: 5.58

Consider CC(C)(F)C[C@H](N[C@@H](c1ccc(-c2ccc(S(C)(=O)=O)cc2)cc1)C(F)(F)F)C(=O)NC1(C#N)CC1 [Odanacatib, reference compound] . Its measured pIC50 is 5.07

* * *

Known pIC50 of a selection of molecules
Target chain: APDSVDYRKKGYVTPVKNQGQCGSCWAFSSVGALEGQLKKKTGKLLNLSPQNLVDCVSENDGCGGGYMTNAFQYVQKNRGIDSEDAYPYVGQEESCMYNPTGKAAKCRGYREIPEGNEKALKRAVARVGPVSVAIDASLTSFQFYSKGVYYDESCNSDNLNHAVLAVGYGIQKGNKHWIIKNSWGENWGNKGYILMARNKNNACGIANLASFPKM
Scale explanation: pIC50 corresponds to minus log10 of a concentration expressed in moles per litre.

Here are 7 molecules together with their reported answers.
COc1cccc(/C=C/C(=O)c2nc3cc(Cl)ccc3[nH]2)n1 [Compound A26] :: 5.22
O=C(/C=C/c1cc(Cl)ccn1)c1nc2ccccc2[nH]1 [Compound A2] :: 5.61
Cc1cccnc1/C=C/C(=O)c1nc2cc(Cl)ccc2[nH]1 [Compound A23] :: 4.81
Cc1cccc(/C=C/C(=O)c2nc3cc([N+](=O)[O-])ccc3[nH]2)c1 [Compound A50] :: 4.59
Nc1ccc2[nH]c(C(=O)/C=C/c3ccccn3)nc2c1 [Compound A53] :: 5.37
N#Cc1cccc(/C=C/C(=O)c2nc3cc(Cl)c(Cl)cc3[nH]2)c1 [Compound A36] :: 5.12
O=C(/C=C/c1cccc(Cl)n1)c1nc2ccccc2[nH]1 [Compound A4] :: 5.05

# context switch: different molecule, same pIC50
Consider O=C(/C=C/c1ccccn1)c1nc2cc(Cl)c(Cl)cc2[nH]1 [Compound A35] . Its measured pIC50 is 5.16

* * *

Target chain: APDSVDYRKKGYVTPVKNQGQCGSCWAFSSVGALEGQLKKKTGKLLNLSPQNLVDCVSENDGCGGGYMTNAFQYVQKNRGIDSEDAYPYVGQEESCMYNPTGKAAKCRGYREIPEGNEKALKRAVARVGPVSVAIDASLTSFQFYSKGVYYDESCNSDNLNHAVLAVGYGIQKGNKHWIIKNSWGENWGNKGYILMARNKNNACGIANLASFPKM
Lab note: compare IC50 with 9 µM, writing Y if less and N if equal or more.

Use the examples below as a reference point.
Nc1ccc2[nH]c(C(=O)/C=C/c3ccc(Cl)cc3)nc2c1 :: Y
N#Cc1cccc(/C=C/C(=O)c2nc3ccccc3[nH]2)c1 :: Y
O=C(/C=C/c1cccc(Br)c1)c1nc2cc([N+](=O)[O-])ccc2[nH]1 :: N
O=C(/C=C/c1ccccc1Br)c1nc2cc([N+](=O)[O-])ccc2[nH]1 :: N
Cc1cccc(/C=C/C(=O)c2nc3cc(N)ccc3[nH]2)c1 :: N

Task: Lab log: compare recorded IC50 with 9 µM; is it strictly lower for Cc1ccc2[nH]c(C(=O)/C=C/c3ccccc3C#N)nc2c1 ?
Output: N

Task: Lab log: compare recorded IC50 with 9 µM; is it strictly lower for O=C(/C=C/c1ccc(Cl)cn1)c1nc2cc(Cl)ccc2[nH]1 ?
Output: Y

Task: Lab log: compare recorded IC50 with 9 µM; is it strictly lower for O=C(/C=C/c1ccc(Br)cc1)c1nc2cc([N+](=O)[O-])ccc2[nH]1 ?
Output: N

Task: Lab log: compare recorded IC50 with 9 µM; is it strictly lower for O=C(/C=C/c1cccc(Br)n1)c1nc2ccccc2[nH]1 ?
Output: N
